# MEASUREMENT_TARGET: T1, CD123 (Homo sapiens (Human), UniProt P26951 19-305, limits assumed)
# T1 construct: The CD123 construct used in the ELISA is not described; also called CD123-Signal
# T1 sequence: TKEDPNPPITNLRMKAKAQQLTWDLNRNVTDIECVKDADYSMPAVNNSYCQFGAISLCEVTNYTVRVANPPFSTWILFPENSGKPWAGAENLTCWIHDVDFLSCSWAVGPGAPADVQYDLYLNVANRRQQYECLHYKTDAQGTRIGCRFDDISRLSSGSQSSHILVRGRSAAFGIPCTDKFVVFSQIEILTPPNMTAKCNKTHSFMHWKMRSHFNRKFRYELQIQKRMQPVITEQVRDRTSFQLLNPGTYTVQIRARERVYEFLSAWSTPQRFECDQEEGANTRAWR
# MEASUREMENT_NOTES: ELISA
# Design: unit not given here
Catalogue of ELISA_avg values
READOUT_NAME: ELISA_avg

• D domain of SEQ ID NO: 606 (designed binder) MGSWTEFEERLEAIWDRLYALGGSEAELAAFEWDIAYFEDGLQEYKGKGNPEVEALFMEAEAIIRELKAYRHN = 5.9
• D domain of SEQ ID NO: 583 (designed binder) MGSWYEFDERLWAIWERLDALGGSEAELAHFEWVIADFENDLQWYKGKGNPEVEALEFEAEAIVTELHAYRHN = 3.6
• D domain of SEQ ID NO: 442 (designed binder) MGSWVEFHMRLDAIYERLDALGGSEAELAAFEKEIAAFESELQAYKGKGNPEVEWLRTAAANIRVELQAYRHN = 9.1
• D domain of SEQ ID NO: 498 (designed binder) MGSWYVFKDELAEIKQFLEALGGSEAELAWFEDDIAEFETQLQHYKGKGNPEVEALRKEAAAIRDELQAYRHN = 9.9
• D domain of SEQ ID NO: 626 (designed binder) MGSWFEFDARLMAINDRLWALGGSEAELAAFEYHIALFEDQLQMYKGKGNPEVEALTLEAVAINEELWAYRHN = 4
• D domain of SEQ ID NO: 471 (designed binder) MGSWYEFKDDLAEIKEWLEALGGSEAELAFFELDIADFEWLLQLYKGKGNPEVEALRKEAAAIRDELQAYRHN = 3.8
• D domain of SEQ ID NO: 366 (designed binder) MGSWEEFAQRLYAIEWRLYALGGSEAELAAFEKEIAAFESELQAYKGKGNPEVEVLRYVAAQIRYHLQAYRHN = 16.9
• D domain of SEQ ID NO: 656 (designed binder) MGSWFEFETRLEAIDLRLWALGGSEAELATFEDVIAFFEDWLQFYKGKGNPEVEALKMEAWAIGEELHAYRHN = 6.6
• D domain of SEQ ID NO: 450 (designed binder) MGSWHEFGVRLDAIYDRLMALGGSEAELAAFEKEIAAFESELQAYKGKGNPEVEFLRQAAANIRSELQAYRHN = 15.6
• D domain of SEQ ID NO: 352 (designed binder) MGSWVEFWQRLEAIESRLWALGGSEAELAAFEKEIAAFESELQAYKGKGNPEVEFLREEAAEIRWELQAYRHN = 7.7
